Test system: HCC-2998 colon
method: NCI-60 one-dose screen, 48 h (100 = growth as untreated, 0 = no growth, -100 = all killed)
recordedConditions: 10 µM
About 83,000 compounds went through this panel and 20% of them were active in at least one assay; those are over-represented in the sample as a whole.
valueType: growth (%)

- compound: "CN(C(=O)c1ccc(C(C)(C)C)cc1)c1sc2c(c1C#N)CCC(=O)C2"
  experimentalTarget: "HCC-2998 colon"
  unitsSymbol: "%"
  readoutNumber: -4.22
- compound: "Cc1nc(Nc2nc(C)c3ccc(OCCN4CCOCC4)cc3n2)[nH]c(=O)c1C"
  experimentalTarget: "HCC-2998 colon"
  unitsSymbol: "%"
  readoutNumber: -72.8
- compound: "C=C(C)[C@@H]1CC[C@]2(COP(=O)(OCC)OCC)CC[C@]3(C)[C@H](CC[C@@H]4[C@@](C)(CCCN)[C@H](C(=C)C)CC[C@]43C)[C@@H]12"
  experimentalTarget: "HCC-2998 colon"
  unitsSymbol: "%"
  readoutNumber: 10.7
- compound: "O=C(c1ccc(-n2c(=O)[nH]c3ccccc3c2=O)cc1)N1CCOCC1"
  experimentalTarget: "HCC-2998 colon"
  unitsSymbol: "%"
  readoutNumber: 116
- compound: "COc1ccc([C@H]2C(C(=O)c3ccc(Cl)cc3)C3(N[C@@H]2c2ccccc2)C(=O)Nc2ccc(Br)cc23)cc1 (some centres undefined)"
  experimentalTarget: "HCC-2998 colon"
  unitsSymbol: "%"
  readoutNumber: -41
- compound: "CCCn1c(=O)c2[nH]c(-c3ccc(OCc4nc5ccc(C)cc5[nH]4)cc3)nc2n(CCC)c1=O"
  experimentalTarget: "HCC-2998 colon"
  unitsSymbol: "%"
  readoutNumber: 61.6
- compound: "COc1cnc2c(c1)C(=O)c1c-2n(CCCNCCO)c(=O)c2cc(OC)c(OC)cc12"
  experimentalTarget: "HCC-2998 colon"
  unitsSymbol: "%"
  readoutNumber: 30.3
- compound: "COc1ccc(-c2nc(S(=O)(=O)c3ccc(C)cc3)c(S(C)(=O)=O)o2)cc1"
  experimentalTarget: "HCC-2998 colon"
  unitsSymbol: "%"
  readoutNumber: -87.6
- compound: "COc1ccc(-c2ccc(/C=N/NC(=O)c3[nH]c4ccc(Br)cc4c3-c3ccccc3)s2)cc1"
  experimentalTarget: "HCC-2998 colon"
  unitsSymbol: "%"
  readoutNumber: 112
